Total Impurity Amount % by entry:
Experiment: Antioxidant effect on galantamine stability under normal and stress conditions
Assay type: physicochemical
Conditions: galantamine with the antioxidant (label); 80′C-4 D
# unit: % | format: bare number

Before answering, review these 3 worked examples.
| compound | quantity_unit | Total Impurity Amount % |
| --- | --- | --- |
| Cc1cc(C(C)(C)C)c(O)c(C(C)(C)C)c1 [Butylated Hydroxytoluene (BHT), butylated hydroxytoluene] | % | 1.18 |
| CCCCCCCCCCCCCCCC(=O)OC[C@H](O)[C@H]1OC(=O)C(O)=C1O [Ascorbyl Palmitate, ascorbyl palmitate] | % | 1.13 |
| O=[N+]([O-])C(Br)(CO)CO [Bronopol, bronopol] | % | 1.82 |

Next, consider the following compound.
Sure, the documented Total Impurity Amount % for O=C1O[C@H]([C@H](O)CO)C(O)=C1O [Erythorbic Acid, erythorbic acid] is 0.87
